# STUDY_SYSTEM: His6-AspH315–758 (human aspartate/asparagine-β-hydroxylase, AspH) (Homo sapiens)
# Construct: N-Terminally His6-tagged human AspH315–758 (His6-AspH315–758) was produced in E. coli BL21 (DE3) cells; made in house; host or cells: E. coli BL21 (DE3), pET-28a(+) vector
# ASSAY_DETAILS: SPE-MS AspH inhibition assay (LOPAC screen at fixed 20 μM and IC50 dose-response), hydroxylation of cyclic peptide hFX-CP101–119
# Type: biochemical
# MEASUREMENT_CONDITIONS: LOPAC Plate 4, compound at 20 uM, substrate conversion
Structures can show the parent of a compound that is named as a salt.
PROPERTY_LABEL: % conversion (%)

* NCCCCN [Putrescine dihydrochloride] | 39.89
* CC(C)NC[C@H](O)COc1cccc2ccccc12 [(S)-Propranolol hydrochloride] | 27.07
* CC(C)(C)NCC(O)c1ccccc1Cl (stereo not shown) [Tulobuterol hydrochloride] | 41.18
* CCCCCN(C)CCC(O)(P(=O)([O-])O)P(=O)(O)O.[Na+] [Ibandronate sodium] | 30.05
* NCCCNCCCCNCCCN [Spermine tetrahydrochloride] | 39.42
* CC(CN(C)C)CN1c2ccccc2CCc2ccccc21 (stereo not shown) [Trimipramine maleate] | 41.64
* COc1cc(/C=C(\C#N)C(=O)Nc2nnc(C(F)(F)F)s2)ccc1OCc1ccc(C(F)(F)F)cc1C(F)(F)F | 22.43
* CC(C)(C)NCC(O)c1ccc(O)c(CO)c1.CC(C)(C)NCC(O)c1ccc(O)c(CO)c1.O=S(=O)(O)O (stereo not shown) [Albuterol hemisulfate] | 30.81
* O=c1[nH]c2ccccc2c2ccccc12 | 36.50
* CC1=C(/C=C/C(C)=C/C=C/C(C)=C/C(=O)O)C(C)(C)CCC1 | 30.58
* C[C@H](N[C@@H](CCc1ccccc1)C(=O)O)C(=O)N1CCC[C@H]1C(=O)O.O.O [Enalaprilat dihydrate] | 37.37
* Nc1nc2c(ncn2[C@@H]2O[C@H](CO)[C@@H](O)[C@@H]2O)c(=O)[nH]1.O [Ara-G hydrate] | 40.29
* CNc1cc(NS(=O)(=O)c2ccc(N)cc2)nc(NC)n1.Cl.Cl [Ro 04-6790 dihydrochloride] | 24.24
* CCOC(=O)c1ccc(C#Cc2ccc3c(c2)C(C)(C)CCS3)nc1 | 39.09
* NC[C@@H]1O[C@H](O[C@H]2[C@@H](O)[C@H](O[C@@H]3[C@@H](O)[C@H](N)C[C@H](N)[C@H]3O[C@H]3O[C@H](CO)[C@@H](O)[C@H](O)[C@H]3N)O[C@@H]2CO)[C@H](N)[C@@H](O)[C@@H]1O [Paromomycin sulfate] | 37.25
* C[C@H](O)[C@H](O)[C@H]1CNc2nc(N)[nH]c(=O)c2N1.Cl | 25.86

----------
# STUDY_SYSTEM: His6-AspH315–758 (human aspartate/asparagine-β-hydroxylase, AspH) (Homo sapiens, UniProt Q12797)
# Construct: N-Terminally His6-tagged human AspH315–758 (His6-AspH315–758) was produced in E. coli BL21 (DE3) cells; made in house; host or cells: E. coli BL21 (DE3), pET-28a(+) vector
# Sequence (Q12797 315-758): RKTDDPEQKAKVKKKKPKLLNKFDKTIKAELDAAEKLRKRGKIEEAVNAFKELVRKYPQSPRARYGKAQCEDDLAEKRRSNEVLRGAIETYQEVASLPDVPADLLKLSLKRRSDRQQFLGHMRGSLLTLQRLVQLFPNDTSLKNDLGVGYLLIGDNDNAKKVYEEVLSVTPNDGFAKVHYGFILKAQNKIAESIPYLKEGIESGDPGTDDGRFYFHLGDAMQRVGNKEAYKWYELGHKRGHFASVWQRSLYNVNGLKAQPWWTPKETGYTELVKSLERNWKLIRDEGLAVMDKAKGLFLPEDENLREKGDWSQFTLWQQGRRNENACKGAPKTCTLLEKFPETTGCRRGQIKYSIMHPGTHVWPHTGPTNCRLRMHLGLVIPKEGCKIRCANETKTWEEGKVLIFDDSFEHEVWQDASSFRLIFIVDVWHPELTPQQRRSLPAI
# ASSAY_DETAILS: SPE-MS AspH inhibition assay (LOPAC screen at fixed 20 μM and IC50 dose-response), hydroxylation of cyclic peptide hFX-CP101–119
# Type: biochemical
# MEASUREMENT_CONDITIONS: LOPAC Plate 4, compound at 20 uM, substrate conversion
Structures can show the parent of a compound that is named as a salt.
% conversion: recorded values
PROPERTY_LABEL: % conversion (%)

• N=C(N)SCCc1ccc(OCc2ccc([N+](=O)[O-])cc2)cc1 [KB-R7493] = 44.17
• O=C(O)CP(=O)(O)O [Phosphonoacetic acid] = 17.53
• Cc1ccc(/C(=C\CN2CCCC2)c2ccccn2)cc1.Cl [Triprolidine hydrochloride] = 39.09
• CCN(CC)CCn1c(=O)c(Cc2ccc(OC)cc2)nc2ccccc21.Cl [Caroverine hydrochloride] = 34.53
• C=CCc1cccc(/C=N/NC(=O)CN2CCN(Cc3ccccc3)CC2)c1O [PAC-1, reference compound] = 3.66
• O=C1c2c(O)cc(O)cc2O[C@H](c2ccc(O)c(O)c2)[C@H]1O (racemic) [(±)-Taxifolin, reference compound] = 3.21
• CC(N/C(=N\C#N)Nc1ccncc1)C(C)(C)C (stereo not drawn) [Pinacidil] = 37.72
• Nc1nc(N)c2nc(-c3ccccc3)c(N)nc2n1 [Triamterene] = 36.11
• CC(C)(C)c1cc(/C=C(\C#N)C(N)=S)cc(C(C)(C)C)c1O [Tyrphostin AG 879] = 26.24
• C[N+]1(C)C2CCC1CC(OC(=O)c1c[nH]c3ccccc13)C2.[I-] (stereo not drawn) = 36.85
• Cl.NC[C@@H]1O[C@H](c2ccccc2)Cc2c1ccc(O)c2O [A-68930 hydrochloride] = 9.73
• C[C@H](O)C(=O)C1=Nc2c(nc(N)[nH]c2=O)NC1 [Sepiapterin] = 40.54
• NC(=O)c1cnccn1 [Pyrazinecarboxamide] = 32.31
• CNC(=C[N+](=O)[O-])NCCSCc1ccc(CN(C)C)o1 [Ranitidine hydrochloride] = 37.20
• CC(C)(C)NCC(O)c1cc(O)cc(O)c1.CC(C)(C)NCC(O)c1cc(O)cc(O)c1.O=S(=O)(O)O (stereo not drawn) [Terbutaline hemisulfate] = 34.60
• Clc1ccc(N2CCN(Cc3cc4ccccn4n3)CC2)cc1 [FAUC 213] = 39.47
• CCCCCCCCCCCCCCSCC(=O)O [Tetradecylthioacetic acid] = 26.50
• CS(=O)(=O)O.O.O=C(OC1C[C@@H]2CC3C[C@H](C1)N2CC3=O)c1c[nH]c2ccccc12 (stereo partly drawn) [Dolasetron mesylate hydrate] = 38.02
